These data points were gathered from patent US9790235B2.

Target: MK2 (Homo sapiens (Human))
Experiment: MK2 cellular assay, total and phospho-Hsp27 (Serine 78) by MSD ELISA (Thp1)
Format: cell-based
Conditions: Thp-1 cells, 1 hour compound, 50 ng/mL LPS 45 minutes, p-HSP27 (Ser78)/total HSP27; read-out: pHSP27 signaling EC50
quantity.kind: EC50

-- ask Could you tell me which EC50 is on file for Cc1nc(Cl)cc(Oc2ccc3c(ccc4sc5c(c43)NC[C@@H](C)NC5=O)n2)n1 ?
-- reply < 100 nM

-- ask Could you tell me which EC50 is on file for C[C@@H]1CNc2c(sc3ccc4nc(Nc5nc(Cl)ncc5C(=O)NC5CC5)ccc4c23)C(=O)N1 ?
-- reply > 1000 nM

* * *

Biological target: UniProt P49137
Test: MK2 cellular assay, total and phospho-Hsp27 (Serine 78) by MSD ELISA (Thp1)
Type: cell-based
Conditions: Thp-1 cells, 1 hour compound, 50 ng/mL LPS 45 minutes, p-HSP27 (Ser78)/total HSP27; read-out: pHSP27 signaling EC50
pEC50: −log10 of the molar value.
Measured pEC50 by item

-- ask Could you tell me which pEC50 is on file for CCOC(=O)c1cnc(Cl)nc1Nc1ccc2c(ccc3sc4c(c32)NC[C@@H](C)NC4=O)n1 [I-18] ?
-- reply 6.30 to 7.00

-- ask Could you tell me which pEC50 is on file for C[C@@H]1CNc2c(sc3ccc4nc(Nc5nc(Cl)ncc5C(=O)N5CC[C@@H](N(C)C)C5)ccc4c23)C(=O)N1 [I-24] ?
-- reply < 6.00

-- ask Could you tell me which pEC50 is on file for C[C@@H]1CNc2c(sc3ccc4nc(Nc5cc(F)ncc5C#N)ccc4c23)C(=O)N1 [I-27] ?
-- reply > 7.00

-- ask Could you tell me which pEC50 is on file for C[C@@H]1CNc2c(sc3ccc4nc(Oc5cc(Cl)nc(CO)n5)ccc4c23)C(=O)N1 [I-68] ?
-- reply > 7.00

-- ask Could you tell me which pEC50 is on file for C[C@@H]1CNc2c(sc3ccc4nc(Oc5cc(CNC(C)(C)C)nc(Cl)n5)ccc4c23)C(=O)N1 [I-117] ?
-- reply > 7.00

New cases:
-- ask Could you tell me which pEC50 is on file for C[C@@H]1CNc2c(sc3ccc4nc(Nc5cc(Cl)ncc5C(N)=O)ccc4c23)C(=O)N1 [I-15] ?
-- reply < 6.00

-- ask Could you tell me which pEC50 is on file for C[C@@H]1CNc2c(sc3ccc4nc(Nc5cc(Cl)nc(O[C@@H]6CCN(C)C6)n5)ccc4c23)C(=O)N1 [I-60] ?
-- reply 6.30 to 7.00

-- ask Could you tell me which pEC50 is on file for C[C@@H]1CNc2c(sc3ccc4nc(Sc5cc(F)ncn5)ccc4c23)C(=O)N1 [I-54] ?
-- reply < 6.00

* * *

Target: MK2 (Homo sapiens (Human))
Assay: MK2 cellular assay, total and phospho-Hsp27 (Serine 78) by MSD ELISA (Thp1)
Assay type: cell-based
Details: Thp-1 cells, 1 hour compound, 50 ng/mL LPS 45 minutes, p-HSP27 (Ser78)/total HSP27; read-out: pHSP27 signaling EC50
Measured EC50 by item

Record excerpt, results attached:
-- ask Could you tell me which EC50 is on file for C[C@@H]1CNc2c(sc3ccc4nc(Oc5nc(Cl)ncc5CN5C[C@@H](C)N[C@@H](C)C5)ccc4c23)C(=O)N1 ?
-- reply > 1000 nM

-- ask Could you tell me which EC50 is on file for C[C@@H]1CNc2c(sc3ccc4nc(Oc5nc(Cl)nc(N6CCCC6)n5)ccc4c23)C(=O)N1 ?
-- reply 101 to 500 nM

-- ask Could you tell me which EC50 is on file for C[C@@H]1CNc2c(sc3ccc4nc(Oc5nc(Cl)ncc5CN5CCC(OCCF)CC5)ccc4c23)C(=O)N1 ?
-- reply < 100 nM

-- ask Could you tell me which EC50 is on file for C[C@@H]1CNc2c(sc3ccc4nc(Nc5nc(Cl)cc(OCCN6CCN(C)CC6)n5)ccc4c23)C(=O)N1 ?
-- reply > 1000 nM

-- ask Could you tell me which EC50 is on file for C[C@@H]1CNc2c(sc3ccc4nc(Oc5nc(Cl)ncc5CN5CC6CC6C5)ccc4c23)C(=O)N1 (some centres unmarked) ?
-- reply < 100 nM

New cases:
-- ask Could you tell me which EC50 is on file for C[C@@H]1CNc2c(sc3ccc4nc(Oc5nc(Cl)ncc5COCCC#N)ccc4c23)C(=O)N1 ?
-- reply 101 to 500 nM

-- ask Could you tell me which EC50 is on file for NC[C@@H]1CNc2c(sc3ccc4nc(Nc5cc(Cl)ncn5)ccc4c23)C(=O)N1 ?
-- reply > 1000 nM

-- ask Could you tell me which EC50 is on file for COC(=O)c1nc(Cl)cc(Nc2ccc3c(ccc4sc5c(c43)NC[C@@H](C)NC5=O)n2)n1 ?
-- reply < 100 nM

* * *

Target: MK2 (Homo sapiens (Human))
Assay: MK2 cellular assay, total and phospho-Hsp27 (Serine 78) by MSD ELISA (Thp1)
Assay type: cell-based
Conditions: Thp-1 cells, 1 hour compound, 50 ng/mL LPS 45 minutes, p-HSP27 (Ser78)/total HSP27; read-out: pHSP27 signaling EC50
quantity.kind: EC50

Record excerpt, results attached:
-- ask Could you tell me which EC50 is on file for C[C@@H]1CNc2c(sc3ccc4nc(Oc5nc(Cl)nc(N6CCOCC6)n5)ccc4c23)C(=O)N1 ?
-- reply < 100 nM

-- ask Could you tell me which EC50 is on file for C[C@@H]1CNc2c(sc3ccc4nc(Nc5cc(F)nc(CN6CCCCC6)n5)ccc4c23)C(=O)N1 ?
-- reply < 100 nM

-- ask Could you tell me which EC50 is on file for C[C@@H]1CNc2c(sc3ccc4nc(Nc5cc(Cl)ncc5C#N)ccc4c23)C(=O)N1 ?
-- reply < 100 nM

-- ask Could you tell me which EC50 is on file for C[C@@H]1CNc2c(sc3ccc4nc(Nc5ccnc(S(C)(=O)=O)n5)ccc4c23)C(=O)N1 ?
-- reply > 1000 nM

-- ask Could you tell me which EC50 is on file for C[C@@H]1CNc2c(sc3ccc4nc(Nc5cc(F)nc(OCCN6CCN(C)CC6)n5)ccc4c23)C(=O)N1 ?
-- reply > 1000 nM

-- ask Could you tell me which EC50 is on file for CNC[C@@H]1CNc2c(sc3ccc4nc(Nc5cc(F)ncn5)ccc4c23)C(=O)N1 ?
-- reply 501 to 999 nM

-- ask Could you tell me which EC50 is on file for C[C@@H]1CNc2c(sc3ccc4nc(Oc5cc(Cl)ncn5)ccc4c23)C(=O)N1 ?
-- reply < 100 nM

-- ask Could you tell me which EC50 is on file for C[C@@H]1CNc2c(sc3ccc4nc(Oc5nc(Cl)nc6c5COC6)ccc4c23)C(=O)N1 ?
-- reply < 100 nM

New cases:
-- ask Could you tell me which EC50 is on file for C[C@@H]1CNc2c(sc3ccc4nc(Oc5nc(Cl)ncc5CN5CCC[C@@H]5C)ccc4c23)C(=O)N1 ?
-- reply < 100 nM

-- ask Could you tell me which EC50 is on file for C[C@@H]1CNc2c(sc3ccc4nc(Oc5ccnc(Cl)n5)ccc4c23)C(=O)N1 ?
-- reply 101 to 500 nM

-- ask Could you tell me which EC50 is on file for COC(=O)c1nc(Cl)cc(Oc2ccc3c(ccc4sc5c(c43)NC[C@@H](C)NC5=O)n2)n1 ?
-- reply < 100 nM

-- ask Could you tell me which EC50 is on file for C[C@@H]1CNc2c(sc3ccc4nc(Nc5nc(Cl)ncc5C(=O)NC5COC5)ccc4c23)C(=O)N1 ?
-- reply > 1000 nM

-- ask Could you tell me which EC50 is on file for C[C@@H]1CNc2c(sc3ccc4nc(Nc5nc(Cl)ncc5C#N)ccc4c23)C(=O)N1 ?
-- reply < 100 nM

-- ask Could you tell me which EC50 is on file for C[C@@H]1CNc2c(sc3ccc4nc(Nc5cc(F)nc(CN6CCN(C)CC6)n5)ccc4c23)C(=O)N1 ?
-- reply > 1000 nM

* * *

Molecular target: MK2 (Homo sapiens (Human), UniProt P49137)
Sequence (P49137 whole entry): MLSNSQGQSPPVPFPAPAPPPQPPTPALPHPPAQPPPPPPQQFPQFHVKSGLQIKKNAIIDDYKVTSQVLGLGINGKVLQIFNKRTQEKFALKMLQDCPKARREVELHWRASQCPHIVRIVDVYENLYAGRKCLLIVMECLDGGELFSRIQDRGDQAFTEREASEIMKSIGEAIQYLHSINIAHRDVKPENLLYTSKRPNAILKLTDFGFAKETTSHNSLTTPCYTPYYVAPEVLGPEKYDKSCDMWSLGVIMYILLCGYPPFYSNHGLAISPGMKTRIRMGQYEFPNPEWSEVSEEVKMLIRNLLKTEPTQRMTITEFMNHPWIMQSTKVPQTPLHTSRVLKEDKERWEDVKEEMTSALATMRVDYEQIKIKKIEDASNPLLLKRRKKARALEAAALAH
Experiment: MK2 cellular assay, total and phospho-Hsp27 (Serine 78) by MSD ELISA (Thp1)
Type: cell-based
Details: Thp-1 cells, 1 hour compound, 50 ng/mL LPS 45 minutes, p-HSP27 (Ser78)/total HSP27; read-out: pHSP27 signaling EC50
Measured EC50 by item

Record excerpt, results attached:
-- ask Could you tell me which EC50 is on file for C[C@@H]1CNc2c(sc3ccc4nc(Oc5nc(Cl)nc(N(C)C)n5)ccc4c23)C(=O)N1 [I-75] ?
-- reply < 100 nM

-- ask Could you tell me which EC50 is on file for C[C@@H]1CNc2c(sc3ccc4nc(Oc5nc(Cl)ncc5CS(C)(=O)=O)ccc4c23)C(=O)N1 [I-112] ?
-- reply 101 to 500 nM

-- ask Could you tell me which EC50 is on file for C[C@@H]1CNc2c(sc3ccc4nc(Oc5cc(CN(C)C(C)(C)C)nc(Cl)n5)ccc4c23)C(=O)N1 [I-118] ?
-- reply 101 to 500 nM

New cases:
-- ask Could you tell me which EC50 is on file for C[C@@H]1CNc2c(sc3ccc4nc(Oc5ncncc5CN(C)C(C)(C)C)ccc4c23)C(=O)N1 [I-104] ?
-- reply > 1000 nM
